Sequence of the target: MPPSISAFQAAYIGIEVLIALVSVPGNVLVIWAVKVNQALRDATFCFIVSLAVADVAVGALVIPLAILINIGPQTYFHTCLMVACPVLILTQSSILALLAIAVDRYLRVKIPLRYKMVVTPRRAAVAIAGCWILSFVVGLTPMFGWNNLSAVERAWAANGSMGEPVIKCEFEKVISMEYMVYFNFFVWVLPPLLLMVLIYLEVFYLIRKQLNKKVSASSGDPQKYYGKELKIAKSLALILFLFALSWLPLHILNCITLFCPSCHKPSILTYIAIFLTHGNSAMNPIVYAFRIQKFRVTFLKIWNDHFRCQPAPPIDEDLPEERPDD
pKi: −log10 of the molar value.
ASSAY_READOUT: pKi

Please report the measured pKi for COCCOc1ccc(N2CCN(CCn3ncc4c3nc(N)n3nc(-c5ccco5)nc43)CC2)cc1 [PRELADENANT]
< 6.00

----------
molecular target: Adenosine receptor A2a (Homo sapiens)
Sequence (P29274 whole entry): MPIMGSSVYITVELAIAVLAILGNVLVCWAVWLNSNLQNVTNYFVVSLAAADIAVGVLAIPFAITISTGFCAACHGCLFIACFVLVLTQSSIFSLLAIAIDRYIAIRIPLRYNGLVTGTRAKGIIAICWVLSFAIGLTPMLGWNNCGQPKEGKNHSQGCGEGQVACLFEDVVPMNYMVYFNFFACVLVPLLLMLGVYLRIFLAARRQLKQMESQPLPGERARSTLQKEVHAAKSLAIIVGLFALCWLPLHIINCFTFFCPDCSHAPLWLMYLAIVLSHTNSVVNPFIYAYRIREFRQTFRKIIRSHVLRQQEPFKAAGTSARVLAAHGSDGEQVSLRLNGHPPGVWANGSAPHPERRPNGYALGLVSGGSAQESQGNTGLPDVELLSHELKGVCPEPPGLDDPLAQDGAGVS
Ki under 0.6 nM gets label 1, anything at or over 0.6 nM gets label 0.

Determine if "CCOc1ccc(N2CCN(CCn3ncc4c3nc(N)n3nc(-c5ccco5)nc43)CC2)cc1" shows Ki strictly lower than 0.6 nM.
label 0

Determine if "Nc1nc2c(cnn2CCN2CCN(c3ccc(Cl)cc3)CC2)c2nc(-c3ccco3)nn12" shows Ki strictly lower than 0.6 nM.
label 1

Determine if "COCCOc1ccc(N2CCN(CCn3ncc4c3nc(N)n3nc(-c5ccco5)nc43)CC2)c(F)c1" shows Ki strictly lower than 0.6 nM.
label 1

Determine if "Nc1nc2c(cnn2CCN2CCN(c3ccc(F)c(F)c3)CC2)c2nc(-c3ccco3)nn12" shows Ki strictly lower than 0.6 nM.
label 0

Determine if C[S+]([O-])COc1ccc(N2CCN(CCn3ncc4c3nc(N)n3nc(-c5ccco5)nc43)CC2)cc1 (configuration not stated) shows Ki strictly lower than 0.6 nM.
label 0

Determine if "Nc1nc2c(cnn2CCN2CCN(c3c(F)cc(F)cc3F)CC2)c2nc(-c3ccco3)nn12" shows Ki strictly lower than 0.6 nM.
label 0

----------
species: Homo sapiens; assay: Selectivity of human adenosine A2A receptor over human adenosine A1 receptor
Assignment: determine reported Ratio Ki for the given compounds.
Hey, just send me the number, nothing else.

Please report the measured Ratio Ki for "Nc1nc2c(cnn2CCN2CCN(c3ccc(Cl)cc3)CC2)c2nc(-c3ccco3)nn12"
1350

Please report the measured Ratio Ki for "CC(=O)COc1ccc(N2CCN(CCn3ncc4c3nc(N)n3nc(-c5ccco5)nc43)CC2)cc1"
427

Please report the measured Ratio Ki for C[S+]([O-])COc1ccc(N2CCN(CCn3ncc4c3nc(N)n3nc(-c5ccco5)nc43)CC2)cc1 (stereo not drawn)
523

Please report the measured Ratio Ki for "CCOc1ccc(N2CCN(CCn3ncc4c3nc(N)n3nc(-c5ccco5)nc43)CC2)cc1"
848

Please report the measured Ratio Ki for "COCCCOc1ccc(N2CCN(CCn3ncc4c3nc(N)n3nc(-c5ccco5)nc43)CC2)cc1"
1160

Please report the measured Ratio Ki for "Nc1nc2c(cnn2CCN2CCN(c3ccc(F)cc3)CC2)c2nc(-c3ccco3)nn12"
101

Please report the measured Ratio Ki for "Nc1nc2c(cnn2CCN2CCN(c3ccc(OCCO)cc3)CC2)c2nc(-c3ccco3)nn12"
1520

Please report the measured Ratio Ki for "Nc1nc2c(cnn2CCN2CCN(c3ccccc3)CC2)c2nc(-c3ccco3)nn12"
343

Please report the measured Ratio Ki for "Nc1nc2c(cnn2CCN2CCN(c3ccccc3F)CC2)c2nc(-c3ccco3)nn12"
894

Please report the measured Ratio Ki for "Nc1nc2c(cnn2CCN2CCN(c3ccc(OCCOC4CC4)cc3)CC2)c2nc(-c3ccco3)nn12"
930

Please report the measured Ratio Ki for "Nc1nc2c(cnn2CCN2CCN(c3ccc(O)cc3)CC2)c2nc(-c3ccco3)nn12"
186

Please report the measured Ratio Ki for "Nc1nc2c(cnn2CCN2CCN(c3c(F)cc(F)cc3F)CC2)c2nc(-c3ccco3)nn12"
319

Please report the measured Ratio Ki for "N#Cc1ccc(N2CCN(CCn3ncc4c3nc(N)n3nc(-c5ccco5)nc43)CC2)cc1"
571

Please report the measured Ratio Ki for COC(C)COc1ccc(N2CCN(CCn3ncc4c3nc(N)n3nc(-c5ccco5)nc43)CC2)cc1 (racemic)
539

Please report the measured Ratio Ki for "COCCOc1ccc(N2CCN(CCn3ncc4c3nc(N)n3nc(-c5ccco5)nc43)CC2)c(F)c1"
1740

Please report the measured Ratio Ki for "Nc1nc2c(cnn2CCN2CCN(c3ccc(F)c(F)c3)CC2)c2nc(-c3ccco3)nn12"
169

Please report the measured Ratio Ki for "Nc1nc2c(cnn2CCN2CCN(c3ccc(F)c(F)c3F)CC2)c2nc(-c3ccco3)nn12"
1500
